System: Fibroblast
Test: Multiplex assay against human fibroblast
Format: toxicity, cell-based
Details: 12 h, 1 µM, compound concentration 1 uM, replicate 1
Response field class: string, computed from recorded Population Mitochondria Different-Phenotype (%) by ranges L (below 4%), M (4% to below 7%), H (7% or more)

Answered examples (5):
MOLECULE	CLASSIFICATION
CCc1cc2cc(NS(=O)(=O)c3ccc(C#N)cc3)ccc2n(CC)c1=O	L
Cl.NCCc1ccc(O)c(O)c1 [DOPAMINE HYDROCHLORIDE]	L
N#Cc1cc(F)cc(-c2nc(-c3ccc(F)cn3)no2)c1	M
CCCCC1=NC2(CCCC2)C(=O)N1Cc1ccc(-c2ccccc2-c2nnn[nH]2)cc1	M
O=C(NCCN1CCC(n2c(=O)[nH]c3cc(Cl)ccc32)CC1)c1ccc(F)cc1 [HALOPEMIDE]	H

Enquiry: Class label required: `COc1ccccc1N1CCN(C[C@@H](C(=O)NC(C)(C)C)c2ccccc2)CC1.Cl.Cl`
Return: H

Enquiry: Where would `CC(=O)Nc1cccc2c1c(Sc1ccc(Cl)cc1)c(C)n2CC(=O)O` land among the classes by reported Population Mitochondria Different-Phenotype (%)?
Return: H
